Literature compilation of IC50 measurements on UniProtKB P42338.

[[record]]
compound = "C[C@H](NC(=O)c1c(N)nn2cccnc12)c1cc2scc(-c3cnn(C)c3)c2c(=O)n1-c1ccccc1"
recorded_endpoint = "IC50"
result = "> 10000 nM"

[[record]]
compound = "C[C@H](NC(=O)c1cc(-c2cccc(NS(C)(=O)=O)c2)cnc1N)c1cc2cccc(Cl)c2c(=O)n1-c1ccccc1"
recorded_endpoint = "IC50"
result = "> 10000 nM"

[[record]]
compound = "CC(=O)Nc1cccc(-c2ccc3ncnc(Nc4ccc(CC#N)cc4)c3c2)c1"
recorded_endpoint = "IC50"
result = "> 10000 nM"

[[record]]
compound = "CC(C)(C#N)c1ccc(-c2n[nH]c3cnc4ccc(-c5ccc6ncccc6c5)cc4c23)cc1"
recorded_endpoint = "IC50"
result = "> 50 nM"

[[record]]
compound = "Cc1nc2c(-c3nnc[nH]3)cc(-c3ccnc(N)c3F)cc2n1-c1ccnc2cc(F)cc(F)c12 (single isomer, unassigned)"
recorded_endpoint = "IC50"
result = "35 nM"


Hi, could you look up IC50 for each item in my list?
1. Cn1cc(-c2cnc3ccc(-c4ccc5oc(N)nc5c4)cc3n2)cn1
2. C[C@H](NC(=O)c1nc(-c2cccc(S(=O)(=O)NC3CC3)c2)cnc1N)c1cc2cccc(Cl)c2c(=O)n1C
3. CN1CCN(C2CCN(c3cnc4ccc(-c5ccc6oc(N)nc6c5)cc4n3)CC2)CC1
4. CC(C)(C)N1CCN(c2cnc3ccc(-c4ccc5oc(N)nc5c4)cc3n2)CC1

Out:
["< 1000 nM", "< 100 nM", "< 1000 nM", "< 1000 nM"]

Hi, could you look up IC50 for each item in my list?
1. Cc1ccccc1-n1c(Cn2nc(CCC(=O)N3CCOCC3)c3c(N)ncnc32)cc2cccc(C)c2c1=O
2. Cc1nc2c(-c3nnc[nH]3)cc(-c3ccnc(N)c3F)cc2n1-c1ccnc2cccc(F)c12
3. C[C@H](NC(=O)c1c(N)nn2cccnc12)c1cc2cccc(C#CCNC(=O)c3ccc(C#N)o3)c2c(=O)n1-c1ccccc1
4. Nc1nc2cc(-c3ccc4ncnc(NC5CCN(C(=O)C6CC6)CC5)c4c3)ccc2o1
5. Cc1nn(C)cc1-c1cccc2cc([C@H](C)Nc3ncnc4scnc34)n(-c3ccccc3)c(=O)c12
6. Cc1cccc2cc(Cn3nc(-c4cnn(C)c4)c4c(N)ncnc43)n(-c3ccccc3F)c(=O)c12

Out:
> 10000 nM
5 nM
1000 to 10000 nM
< 10000 nM
1000 to 10000 nM
> 10000 nM

Data point: "C[C@H](Nc1nc(N)ncc1C#N)c1cc2cccc(-c3cccc(N(C)C)c3)c2c(=O)n1-c1ccccc1" ; IC50 = 1000 to 10000 nM
